Tested on: Jurkat cells
Experiment: Tacrolimus dose response of FKBP13-AcGFP-mCherry constructs stably transduced into Jurkat cells, GFP MFI by flow cytometry
Assay type: cell-based
Details: tacrolimus dose response, Jurkat cells stably transduced (FIG. 10); Table 5
Measured attribute: Fold Change

>>> meas_value("FKBP-059: FKBP13 DRD Q72R, Q84E, A117H, L93A; SEQ ID NO: 15 (protein, Description of sequence: FKBP13-AcGFP-mCherry Fusion; Construct Name: FKBP-059; FKBP13 DRD in Construct : FKBP13 (mutated to match FKBP12 active site - Q72R Q84E A117H) (DRD - L93A)) HCPIKSRKGDVLHMHYTGKLEDGTEFDSSLPRNQPFVFSLGTGEVIKGWDQGALGMCEGEKRKLVIPSELGYGERGHPPKIPGGATLVFEVELLKIER")
31.085
>>> meas_value("FKBP-085: FKBP13 trunc1WT DRD Q72R, Q84E, A117H; SEQ ID NO: 35 (protein, truncated (trunc1); Description of sequence: FKBP13-AcGFP-mCherry Fusion; Construct Name: FKBP-085; FKBP13 DRD in Construct : FKBP13 trunc1WT (mutated to match FKBP12 active site Q72R Q84E A117H) (DRD - WT)) CPIKSRKGDVLHMHYTGKLEDGTEFDSSLPRNQPFVFSLGTGEVIKGWDQGLLGMCEGEKRKLVIPSELGYGERGHPPKIPGGATLVFEVELLKIER")
16.09
